Attribution: patent US6914045B2

Assay: clinical pathology (serum clinical chemistry) in mice
Format: in vivo
Details: CD-1 mice, 20 mg/kg intravenously daily for 9 days, sera day 10
Below: a set of entries, each annotated with reported Clinical Chemistry (Day 10) % of Control, AST.

# Molecule, Test Result
data = [
    ("CC(c1ccccc1)C1NC(=O)CNC(=O)C(CO)NC(=O)C(C(O)C2CNC(=N)N2C2OC(CO)C(O)C(O)C2O)NC(=O)C(C(O)C2CNC(=N)N2)NC(=O)C(Cc2ccc(OC3OC(CO)C(OC4OC5COC(c6ccccc6)OC5C(O)C4O)C(O)C3O)cc2)NC1=O (stereo not shown) [Example 104]", "+87%"),
    ("CC(c1ccccc1)C1NC(=O)CNC(=O)C(CO)NC(=O)C(C(O)C2CNC(=N)N2C2OC(CO)C(O)C(O)C2O)NC(=O)C(C(O)C2CNC(=N)N2)NC(=O)C(Cc2ccc(OC3OC(CO)C(OC4OC5COC(Cc6ccccc6)OC5C(O)C4O)C(O)C3O)cc2)NC1=O (stereo not shown) [Example 102]", "+340%"),
]

Given the molecule CC(c1ccccc1)C1NC(=O)CNC(=O)C(CO)NC(=O)C(C(O)C2CN(Cc3ccccc3-c3ccccc3)C(=N)N2C2OC(CO)C(O)C(O)C2O)NC(=O)C(C(O)C2CNC(=N)N2)NC(=O)C(Cc2ccc(OC3OC(CO)C(OC4OC(CO)C(O)C(O)C4O)C(O)C3O)cc2)NC1=O (stereo not shown) [Example 65] , write its reported Clinical Chemistry (Day 10) % of Control, AST.
+182%

Give recorded Clinical Chemistry (Day 10) % of Control, AST. CC(C)CC(=O)OC1C(OC2C(CO)OC(Oc3ccc(CC4NC(=O)C(C(C)c5ccccc5)NC(=O)CNC(=O)C(CO)NC(=O)C(CC5CNC(=N)N5C5OC(CO)C(O)C(O)C5O)NC(=O)C(CC5CNC(=N)N5)NC4=O)cc3)C(O)C2O)OC(CO)C(O)C1O (stereo not shown) [Example 277b]
+138%

###

Test system: Streptococcus sp.
Experiment: in vitro antibacterial evaluation, MIC by broth dilution
Format: cell-based
Details: Streptococcus pneumoniae (ATCC 6301); broth dilution, 18 hours at 35° C.
Each item that follows carries a reported MIC Streptococcus pneumoniae (ATCC 6301).

# Compound, MIC Streptococcus pneumoniae (ATCC 6301)
records = [
    ("CC(=O)n1cc(C2OCC3OC(OC4C(CO)OC(Oc5ccc(CC6NC(=O)C(C(C)c7ccccc7)NC(=O)CNC(=O)C(CO)NC(=O)C(C(O)C7CNC(=N)N7C7OC(CO)C(O)C(O)C7O)NC(=O)C(C(O)C7CNC(=N)N7)NC6=O)cc5)C(O)C4O)C(O)C(O)C3O2)c2ccccc21 (stereo not shown)", "0.5 µg/mL"),
    ("CC(c1ccccc1)C1NC(=O)CNC(=O)C(CO)NC(=O)C(C(O)C2CNC(=N)N2C2OC(CO)C(O)C(O)C2O)NC(=O)C(C(O)C2CNC(=N)N2)NC(=O)C(Cc2ccc(OC3OC(CO)C(OC4OC5COC(c6ccc7ccccc7c6)OC5C(O)C4O)C(O)C3O)cc2)NC1=O (stereo not shown)", "<0.5 µg/mL"),
    ("CCCCOC(=O)CCC1OCC2OC(OC3C(CO)OC(Oc4ccc(CC5NC(=O)C(C(C)c6ccccc6)NC(=O)CNC(=O)C(CO)NC(=O)C(C(O)C6CNC(=N)N6C6OC(CO)C(O)C(O)C6O)NC(=O)C(C(O)C6CNC(=N)N6)NC5=O)cc4)C(O)C3O)C(O)C(O)C2O1 (stereo not shown)", "0.12 µg/mL"),
]

The record that follows has no MIC Streptococcus pneumoniae (ATCC 6301) shown yet.
Indicate the recorded MIC Streptococcus pneumoniae (ATCC 6301) value for this compound: COc1ccc(CC2OCC3OC(OC4C(CO)OC(Oc5ccc(CC6NC(=O)C(C(C)c7ccccc7)NC(=O)CNC(=O)C(CO)NC(=O)C(C(O)C7CNC(=N)N7C7OC(CO)C(O)C(O)C7O)NC(=O)C(C(O)C7CNC(=N)N7)NC6=O)cc5)C(O)C4O)C(O)C(O)C3O2)cc1 (stereo not shown)
0.12 µg/mL
